- runDescription: Photostability evaluation
- Type: physicochemical
- studyConditions: Solid, Vis (1.2M Lux-h)
propertyMeasured: Total related material

>>> recordedmeasurement("C[C@@H]1CN(C(=O)CC#N)CC=C1c1cc(NC(=O)C2CC2)nc2[nH]ccc12 [Example 4]")
"0.68%"
>>> recordedmeasurement("C[C@@H]1CN(C(=O)CC#N)CC=C1c1cc(NC(=O)C2CC2)nc2[nH]ccc12 [Example 3]")
"0.41%"
>>> recordedmeasurement("C[C@@H]1CN(C(=O)CC#N)CC=C1c1cc(NC(=O)C2CC2)nc2[nH]ccc12 [Example 1]")
"3.83%"
>>> recordedmeasurement("C[C@@H]1CN(C(=O)CC#N)CC=C1c1cc(NC(=O)C2CC2)nc2[nH]ccc12 [Example 5]")
"1.72%"
>>> recordedmeasurement("C[C@@H]1CN(C(=O)CC#N)CC=C1c1cc(NC(=O)C2CC2)nc2[nH]ccc12 [Example 2]")
"0.69%"

----------
Overview of reported Water across a group of compounds:
- runDescription: Hygroscopicity evaluation
- Assay type: physicochemical
- studyConditions: relative humidity 33%, 4 W
propertyMeasured: Water (%)

>>> recordedmeasurement("C[C@@H]1CN(C(=O)CC#N)CC=C1c1cc(NC(=O)C2CC2)nc2[nH]ccc12 [Example 4]")
0.54
>>> recordedmeasurement("C[C@@H]1CN(C(=O)CC#N)CC=C1c1cc(NC(=O)C2CC2)nc2[nH]ccc12 [Example 2]")
3.94
>>> recordedmeasurement("C[C@@H]1CN(C(=O)CC#N)CC=C1c1cc(NC(=O)C2CC2)nc2[nH]ccc12 [Example 1]")
5.32
>>> recordedmeasurement("C[C@@H]1CN(C(=O)CC#N)CC=C1c1cc(NC(=O)C2CC2)nc2[nH]ccc12 [Example 3]")
0.53

----------
- runDescription: Hygroscopicity evaluation
- Format: physicochemical
- studyConditions: relative humidity 33%, 2 W; in %
- Text: Samples were placed in a glass desiccator in which relative humidity was adjusted to 33%, 53%, 75%, and 93%, and then stored for two and four weeks to be evaluated.
propertyMeasured: Individual related material

>>> recordedmeasurement("C[C@@H]1CN(C(=O)CC#N)CC=C1c1cc(NC(=O)C2CC2)nc2[nH]ccc12 [Example 2]")
0.11
>>> recordedmeasurement("C[C@@H]1CN(C(=O)CC#N)CC=C1c1cc(NC(=O)C2CC2)nc2[nH]ccc12 [Example 1]")
0.12
>>> recordedmeasurement("C[C@@H]1CN(C(=O)CC#N)CC=C1c1cc(NC(=O)C2CC2)nc2[nH]ccc12 [Example 4]")
0.14
>>> recordedmeasurement("C[C@@H]1CN(C(=O)CC#N)CC=C1c1cc(NC(=O)C2CC2)nc2[nH]ccc12 [Example 3]")
0.07

----------
- runDescription: Hygroscopicity evaluation
- Assay type: physicochemical
- studyConditions: relative humidity 93%, 2 W
propertyMeasured: Total related material

>>> recordedmeasurement("C[C@@H]1CN(C(=O)CC#N)CC=C1c1cc(NC(=O)C2CC2)nc2[nH]ccc12 [Example 3]")
"0.41%"
>>> recordedmeasurement("C[C@@H]1CN(C(=O)CC#N)CC=C1c1cc(NC(=O)C2CC2)nc2[nH]ccc12 [Example 1]")
"0.89%"
>>> recordedmeasurement("C[C@@H]1CN(C(=O)CC#N)CC=C1c1cc(NC(=O)C2CC2)nc2[nH]ccc12 [Example 2]")
"0.54%"
>>> recordedmeasurement("C[C@@H]1CN(C(=O)CC#N)CC=C1c1cc(NC(=O)C2CC2)nc2[nH]ccc12 [Example 4]")
"1.17%"

----------
- runDescription: Physical stability evaluation under stress conditions
- Assay type: physicochemical
- studyConditions: S2W: 2 weeks at 60° C./80% RH
propertyMeasured: Purity: Individual related material (%)

>>> recordedmeasurement("C[C@@H]1CN(C(=O)CC#N)CC=C1c1cc(NC(=O)C2CC2)nc2[nH]ccc12 [Example 1]")
0.13
>>> recordedmeasurement("C[C@@H]1CN(C(=O)CC#N)CC=C1c1cc(NC(=O)C2CC2)nc2[nH]ccc12 [Example 2]")
0.11
>>> recordedmeasurement("C[C@@H]1CN(C(=O)CC#N)CC=C1c1cc(NC(=O)C2CC2)nc2[nH]ccc12 [Example 4]")
0.23
>>> recordedmeasurement("C[C@@H]1CN(C(=O)CC#N)CC=C1c1cc(NC(=O)C2CC2)nc2[nH]ccc12 [Example 3]")
0.08

----------
Overview of reported Purity: Total related material across a group of compounds:
- runDescription: Physical stability evaluation under stress conditions
- Type: physicochemical
- studyConditions: S2W: 2 weeks at 60° C./80% RH
propertyMeasured: Purity: Total related material (%)

>>> recordedmeasurement("C[C@@H]1CN(C(=O)CC#N)CC=C1c1cc(NC(=O)C2CC2)nc2[nH]ccc12 [Example 3]")
0.43
>>> recordedmeasurement("C[C@@H]1CN(C(=O)CC#N)CC=C1c1cc(NC(=O)C2CC2)nc2[nH]ccc12 [Example 1]")
1.08
>>> recordedmeasurement("C[C@@H]1CN(C(=O)CC#N)CC=C1c1cc(NC(=O)C2CC2)nc2[nH]ccc12 [Example 2]")
0.63
>>> recordedmeasurement("C[C@@H]1CN(C(=O)CC#N)CC=C1c1cc(NC(=O)C2CC2)nc2[nH]ccc12 [Example 4]")
1.32

----------
- runDescription: Measurement of water solubility
- Format: physicochemical
- studyConditions: saturated solution shaken at room temperature for 24 hours
Overview of reported Water solubility across a group of compounds:
propertyMeasured: Water solubility (µg/mL)

>>> recordedmeasurement("C[C@@H]1CN(C(=O)CC#N)CC=C1c1cc(NC(=O)C2CC2)nc2[nH]ccc12 [Example 5]")
4600
>>> recordedmeasurement("C[C@@H]1CN(C(=O)CC#N)CC=C1c1cc(NC(=O)C2CC2)nc2[nH]ccc12 [Example 3]")
3900
>>> recordedmeasurement("C[C@@H]1CN(C(=O)CC#N)CC=C1c1cc(NC(=O)C2CC2)nc2[nH]ccc12 [Example 6]")
900
>>> recordedmeasurement("C[C@@H]1CN(C(=O)CC#N)CC=C1c1cc(NC(=O)C2CC2)nc2[nH]ccc12 [Example 4]")
1900
>>> recordedmeasurement("C[C@@H]1CN(C(=O)CC#N)CC=C1c1cc(NC(=O)C2CC2)nc2[nH]ccc12 [Example 2]")
5900
>>> recordedmeasurement("C[C@@H]1CN(C(=O)CC#N)CC=C1c1cc(NC(=O)C2CC2)nc2[nH]ccc12 [Example 1]")
5900

----------
- runDescription: Physical stability evaluation under stress conditions
- Type: physicochemical
- studyConditions: S4W: 4 weeks at 60° C./80% RH
Overview of reported Purity: Individual related material across a group of molecules:
propertyMeasured: Purity: Individual related material (%)

>>> recordedmeasurement("C[C@@H]1CN(C(=O)CC#N)CC=C1c1cc(NC(=O)C2CC2)nc2[nH]ccc12 [Example 2]")
0.14
>>> recordedmeasurement("C[C@@H]1CN(C(=O)CC#N)CC=C1c1cc(NC(=O)C2CC2)nc2[nH]ccc12 [Example 1]")
0.34
>>> recordedmeasurement("C[C@@H]1CN(C(=O)CC#N)CC=C1c1cc(NC(=O)C2CC2)nc2[nH]ccc12 [Example 3]")
0.11
>>> recordedmeasurement("C[C@@H]1CN(C(=O)CC#N)CC=C1c1cc(NC(=O)C2CC2)nc2[nH]ccc12 [Example 4]")
0.30

----------
- System: JAK1, Tyk2
- runDescription: In vitro cell assay, JAK1, Tyk2 (U2OS cells, IFN-alphaB2)
- Type: cell-based
- studyConditions: Homo sapiens, read-out: IC50, Cell Biology JAK1, Tyk2
pIC50: −log10 of the molar value.
propertyMeasured: pIC50

>>> recordedmeasurement("C[C@@H]1CN(C(=O)CC#N)CC=C1c1cc(NC(=O)C2CC2)nc2[nH]ccc12 [Compound 1]")
7.57

----------
Overview of reported Water across a group of compounds:
- runDescription: Hygroscopicity evaluation
- Format: physicochemical
- studyConditions: relative humidity 75%, 2 W
propertyMeasured: Water

>>> recordedmeasurement("C[C@@H]1CN(C(=O)CC#N)CC=C1c1cc(NC(=O)C2CC2)nc2[nH]ccc12 [Example 1]")
"5.24%"
>>> recordedmeasurement("C[C@@H]1CN(C(=O)CC#N)CC=C1c1cc(NC(=O)C2CC2)nc2[nH]ccc12 [Example 3]")
"0.60%"
>>> recordedmeasurement("C[C@@H]1CN(C(=O)CC#N)CC=C1c1cc(NC(=O)C2CC2)nc2[nH]ccc12 [Example 2]")
"3.78%"
>>> recordedmeasurement("C[C@@H]1CN(C(=O)CC#N)CC=C1c1cc(NC(=O)C2CC2)nc2[nH]ccc12 [Example 4]")
"1.44%"

----------
- runDescription: Photostability evaluation
- Type: physicochemical
- studyConditions: Solid, Vis (1.2M Lux-h)
Use 0.1% as the dividing line for Individual related material, with the line itself on the 1 (yes) side and lower values as 0 (no).

>>> categorylabel("C[C@@H]1CN(C(=O)CC#N)CC=C1c1cc(NC(=O)C2CC2)nc2[nH]ccc12 [Example 2]")
"1 (yes)"
>>> categorylabel("C[C@@H]1CN(C(=O)CC#N)CC=C1c1cc(NC(=O)C2CC2)nc2[nH]ccc12 [Example 5]")
"1 (yes)"
>>> categorylabel("C[C@@H]1CN(C(=O)CC#N)CC=C1c1cc(NC(=O)C2CC2)nc2[nH]ccc12 [Example 3]")
"0 (no)"
>>> categorylabel("C[C@@H]1CN(C(=O)CC#N)CC=C1c1cc(NC(=O)C2CC2)nc2[nH]ccc12 [Example 4]")
"1 (yes)"
>>> categorylabel("C[C@@H]1CN(C(=O)CC#N)CC=C1c1cc(NC(=O)C2CC2)nc2[nH]ccc12 [Example 1]")
"1 (yes)"
